pIC50: −log10 of the molar value.
Below, pIC50 values reported for Steroid 17-alpha-hydroxylase/17,20 lyase (Rattus norvegicus, UniProt P11715) across several publications.

Field: example entries. Status: answers known.
Compound: CC(C)C(O)(c1ccc2cc(-c3cnco3)ccc2c1)c1c[nH]nn1 (centres unmarked)
pIC50: 6.29
//
Compound: CSc1ccc2nc(C(O)(c3ccncn3)C(C)C)ccc2c1 (centres unmarked)
pIC50: 6.92
//
Compound: CC(O)(c1ccncc1)c1cnc(-c2ccc(F)cc2)o1 (centres unmarked)
pIC50: > 7.30
//
Compound: CC(O)(c1ccncc1)c1nsc(-c2ccc(F)cc2)n1 (centres unmarked)
pIC50: 6.70 to 7.30
//
Compound: CCC(C(c1ccc2nc(Br)sc2c1)n1ccnc1)N(C)CC (centres unmarked)
pIC50: > 5.30
//
Compound: COc1ccc(-c2ccc(C(C)(O)c3ccncc3)nc2)cc1F (centres unmarked)
pIC50: > 7.30
//
Compound: COc1cc2ccc(C(C(C)C)n3ncnn3)cc2cc1OC (centres unmarked)
pIC50: 6.57
//
Compound: OC1(c2cnc(-c3ccc(F)cc3)s2)CCCc2cnccc21 (centres unmarked)
pIC50: > 7.30
//
Compound: CCC(O)(c1ccncc1)c1ncc(-c2ccc(F)cc2)s1 (centres unmarked)
pIC50: > 7.30
//
Compound: CC(O)(c1ccncc1)c1nc(-c2ccc(F)cc2)ns1 (centres unmarked)
pIC50: > 7.30

stdin: Param readout= pIC50; system= Steroid 17-alpha-hydroxylase/17,20 lyase (Rattus norvegicus, UniProt P11715); entry= CC(O)(c1ccncc1)c1cc(-c2ccc(F)cc2)sn1 (centres unmarked) ; returns value.
stdout: > 7.30

stdin: Form field: pIC50 recorded for CC(C)C(c1ccc2cc(OCC(F)(F)F)c(OCC(F)(F)F)cc2c1)n1ccnn1 (centres unmarked) with Steroid 17-alpha-hydroxylase/17,20 lyase (Rattus norvegicus, UniProt P11715) (enter value)
stdout: 6.32

stdin: Lab request: please report pIC50 under test system Steroid 17-alpha-hydroxylase/17,20 lyase (Rattus norvegicus, UniProt P11715) for CCC(c1ccc(-c2ccc(OC)cc2)o1)n1ccnc1 (centres unmarked)
stdout: > 7.30

stdin: Lookup: pIC50 / Steroid 17-alpha-hydroxylase/17,20 lyase (Rattus norvegicus, UniProt P11715) / CC(c1cnc(-c2ccc(=O)[nH]c2)s1)n1ccnc1 (centres unmarked)
stdout: 5.00 to 6.70

* * *

System: Steroid 17-alpha-hydroxylase/17,20 lyase (Rattus norvegicus) | Read-out: IC50 | Origin: multiple publications

Below, each entry is followed by its recorded IC50 result.
Compound: CC(O)(c1ccncc1)c1cc(-c2ccc(F)cc2)on1 (stereo not drawn)
IC50: < 50 nM
--
Compound: CC(C)CC(c1ccc(-c2ccc(O)cc2)s1)n1ccnc1 (stereo not drawn)
IC50: < 50 nM
--
Compound: CC(O)(c1ccncc1)c1cnc(-c2ccc(C(F)(F)F)cc2)s1 (stereo not drawn)
IC50: < 50 nM

stdin: // map CCC(C(c1ccc2nc(C(=O)OC)sc2c1)n1ccnc1)N(C)C (stereo not drawn) to recorded IC50 (system: Steroid 17-alpha-hydroxylase/17,20 lyase (Rattus norvegicus))
stdout: < 5000 nM

stdin: Lab note: need IC50 for CCC(c1ccc(-c2ccc(O)cc2)cn1)n1ccnc1 (stereo not drawn) on Steroid 17-alpha-hydroxylase/17,20 lyase (Rattus norvegicus), anyone have it?
stdout: < 50 nM

stdin: Provide value of IC50 for this record tested with Steroid 17-alpha-hydroxylase/17,20 lyase (Rattus norvegicus): CCC(CC)C(c1ccc2nc(Br)sc2c1)n1ccnc1 (stereo not drawn)
stdout: < 5000 nM

stdin: For the record Cn1cc(-c2ccc(C(C)(O)c3ccncc3)o2)ccc1=O (stereo not drawn) , what value of IC50 is listed for Steroid 17-alpha-hydroxylase/17,20 lyase (Rattus norvegicus)?
stdout: 50 to 200 nM

stdin: Identify the measured IC50 of CCC(c1ccc(-c2ccc(C(=O)O)cc2)cn1)n1ccnc1 (stereo not drawn) for Steroid 17-alpha-hydroxylase/17,20 lyase (Rattus norvegicus).
stdout: 201 to 10000 nM
